# protocol-notes: in vitro
# condition-parameters: rat, gh3-tre-luc cells, AC50 (uM) modified / 1000
observed-property: CC50 at 24 h

Below, each entry is followed by its recorded CC50 at 24 h result.
>>> print(df.to_string())
                                   molecule  observed_property    result
0  CC1=C2[C@H](/C=C(\C)C(=O)O)CC[C@@H](C)[C@H]2CC1       CC50 at 24 h  > 100 µM
1           O=[N+]([O-])c1ccc(Nc2ccccc2)cc1       CC50 at 24 h   45.4 µM
2                       CCCCCCCCCCCCNC(=N)N       CC50 at 24 h    > 4 µM
3  CN[C@@]1(c2ccccc2Cl)CCCCC1=O [(+)-Ketamine]       CC50 at 24 h   > 50 µM

# context switch: different molecule, same CC50 at 24 h
Memo: CCC(C)C=O (centres unmarked) , reported CC50 at 24 h: > 90 µM

Where do these numbers come from? They come from paper PMC6792352.
